Reference for the values: the Human Domainome abundance scans (Beltran et al. 2025)

B1: Cyclin-F, residues 28 to 80; numbered along this chain, P41002 (parent)
chain: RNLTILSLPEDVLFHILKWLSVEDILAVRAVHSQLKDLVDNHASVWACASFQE

Variants of: B1
Assay: abundance fitness (aPCA) (normalised: wild type 0, dead -1); higher = more abundant; growth selection in yeast, the domain comes from the species named
Settings: Homo sapiens
attributeMeasured: abundance fitness

variantSpec	attributeMeasured	valueMeasured
Q34L	abundance fitness	-0.368

Per the record, `D24I` has abundance fitness of -0.684

Per the record, `V39I` has abundance fitness of -0.074

Per the record, `S21C` has abundance fitness of -0.311

Per the record, `E10T` has abundance fitness of -0.35

Per the record, `A30C` has abundance fitness of 0.089

Per the record, `E53K` has abundance fitness of 0.081

Per the record, `I5D` has abundance fitness of -0.868
